- System: P. aeruginosa CDC-0110
- Test Details: microbe, parasite or virus in culture
- Format: cell-based
- Protocol Conditions: Pseudomonas aeruginosa, CDC0110, read-out: Minimum inhibitory concentration, P. aeruginosa CDC-0110
Measurement Type: MIC

[[record]]
molecule = "O=C(O)c1c(F)ccc2c1OB(O)[C@@H](NC(=O)[C@H](NC(=O)N1CCN(C3CCN(C(=O)c4cc(F)c(F)c(O)c4F)CC3)C1=O)c1cc(F)c(O)c(O)c1Cl)C2 (single isomer, unassigned)"
measured_target = "P. aeruginosa CDC-0110"
observed = "< 1 µg/mL"

[[record]]
molecule = "O=C(NCCN1CCN(C(=O)NC(C(=O)N[C@H]2Cc3ccc(F)c(C(=O)O)c3OB2O)c2cc(F)c(O)c(O)c2Cl)C(=O)C1=O)c1cccnc1 (some centres unmarked)"
measured_target = "P. aeruginosa CDC-0110"
observed = "< 1 µg/mL"


If you can, please state the reported MIC value of O=C(O)c1c(F)ccc2c1OB(O)[C@@H](NC(=O)C(NC(=O)N1CCN(C3CCN(C(=O)Nc4cc(O)cc(Cl)c4)CC3)C(=O)C1=O)c1cc(F)c(O)c(O)c1Cl)C2 (some centres unmarked) .
2 to 4 µg/mL

Any idea what MIC was measured for CN(CCCN1CCN(C(=O)NC(C(=O)N[C@H]2Cc3ccc(F)c(C(=O)O)c3OB2O)c2cc(F)c(O)c(O)c2Cl)C(=O)C1=O)C(=O)c1cccc(O)c1 (some centres unmarked) ?
< 1 µg/mL

What MIC value was documented for this molecule, O=C(NCCCN1CCN(C(=O)N[C@H](C(=O)N[C@H]2Cc3ccc(F)c(C(=O)O)c3OB2O)c2cc(F)c(O)c(O)c2Cl)C1=O)Nc1ccc(O)cc1 ?
> 128 µg/mL
